molecular target: human AR (Homo sapiens, UniProt P10275); test: AR-CALUX assay, antiandrogenic (AR antagonistic) activity, U2OS-luc cells; type: cell-based; parameters: host or cells: human U2OS-luc (osteoblastic osteosarcoma) cells; settings: present study; 24 h exposure with 100 pM DHT (EC50 level)
Sequence (P10275 whole entry): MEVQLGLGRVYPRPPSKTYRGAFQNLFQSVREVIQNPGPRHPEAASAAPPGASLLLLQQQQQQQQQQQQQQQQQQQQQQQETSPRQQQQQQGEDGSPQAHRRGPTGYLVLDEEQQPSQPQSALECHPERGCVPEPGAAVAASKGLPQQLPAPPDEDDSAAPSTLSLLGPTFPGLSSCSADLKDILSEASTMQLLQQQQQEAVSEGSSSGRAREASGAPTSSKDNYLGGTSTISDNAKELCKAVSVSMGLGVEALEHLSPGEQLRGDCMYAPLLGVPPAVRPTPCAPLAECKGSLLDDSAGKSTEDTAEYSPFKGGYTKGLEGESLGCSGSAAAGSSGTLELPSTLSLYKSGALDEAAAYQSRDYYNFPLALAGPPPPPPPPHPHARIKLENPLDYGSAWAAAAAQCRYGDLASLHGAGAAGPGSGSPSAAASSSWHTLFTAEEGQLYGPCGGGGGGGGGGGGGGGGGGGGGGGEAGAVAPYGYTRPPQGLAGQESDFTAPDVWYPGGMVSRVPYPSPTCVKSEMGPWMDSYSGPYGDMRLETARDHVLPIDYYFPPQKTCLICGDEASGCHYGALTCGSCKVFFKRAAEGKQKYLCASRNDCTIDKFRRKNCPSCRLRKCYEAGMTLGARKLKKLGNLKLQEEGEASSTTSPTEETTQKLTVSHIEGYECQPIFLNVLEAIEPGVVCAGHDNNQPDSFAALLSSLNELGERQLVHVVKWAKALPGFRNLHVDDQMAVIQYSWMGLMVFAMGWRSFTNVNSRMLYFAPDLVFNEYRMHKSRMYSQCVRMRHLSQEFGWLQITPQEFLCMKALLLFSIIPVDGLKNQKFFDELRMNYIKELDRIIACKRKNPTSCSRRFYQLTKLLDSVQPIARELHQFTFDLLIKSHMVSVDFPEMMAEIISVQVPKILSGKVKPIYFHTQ
We label by threshold. Values of IC25 strictly beneath 0.1 µM are 1. Values of 0.1 µM and up are 0.

Reference set, count: 6
c1ccc2c(c1)ccc1ccc3ccccc3c12 [B[c]Phe, Benzo[c]phenanthrene] = 0
O=C1c2ccccc2C(=O)c2c1ccc1ccccc21 [BAQ, 7,12-benz[a]anthracenequinone] = 0
O=C1c2ccccc2-c2cc3ccccc3cc21 [B[b]FO, 11H-benzo[b]fluoren-11-one] = 0
O=C1C=Cc2cccc3cccc1c23 = 0
O=[N+]([O-])c1ccc2ccc3cccc4ccc1c2c34 = 1
c1ccc2c(c1)cc1ccc3cccc4c5ccccc5c2c1c34 [DB[a,l]P, dibenzo[a,l]pyrene] = 0

For this compound, is IC25 lower than 0.1 µM? O=C1c2ccccc2-c2ccc([N+](=O)[O-])c3cccc1c23 [3-NBAO, 3-nitro-7H-benz[de]anthracen-7-one]
1

For this compound, is IC25 lower than 0.1 µM? O=[N+]([O-])c1cc2c3ccccc3ccc2c2ccccc12
1

For this compound, is IC25 lower than 0.1 µM? c1ccc2c3c(ccc2c1)-c1cccc2cccc-3c12 [B[j]FA, benzo[j]fluoranthene]
0

For this compound, is IC25 lower than 0.1 µM? O=[N+]([O-])c1cc([N+](=O)[O-])c2ccc3cccc4ccc1c2c43
0

For this compound, is IC25 lower than 0.1 µM? O=C1C(=O)c2ccccc2-c2ccccc21
0

For this compound, is IC25 lower than 0.1 µM? O=C1c2ccccc2-c2ccc3ccccc3c21 [B[a]FO, 11H-Benzo[a]fluoren-11-one]
0

For this compound, is IC25 lower than 0.1 µM? O=[N+]([O-])c1ccc2c3c(cccc13)-c1ccccc1-2
1
